These entries and their values trace back to ChEMBL document CHEMBL1134126.

- Tested on: Beta-TC6
- experiment-description: In vitro inhibition of insulin release from murine beta-TC6 cells
- Format: functional, cell-based
- recorded-conditions: Mus musculus
attribute-measured: IC50 (µM)

CCC/N=C(\NC#N)Nc1cc(Cl)cc(Cl)c1 | 3.7

A. CC(C)CC/N=C(\NC#N)Nc1cc(C(F)(F)F)cc(C(F)(F)F)c1
B. CC(/N=C(\NC#N)Nc1cc(Cl)cc(Cl)c1)C(C)(C)C (centres undefined)
In the pair A and B , the larger recorded IC50 belongs to which? Indicate which entry you chose by stating its label.
B
